Recorded amyloid nucleation score values for a group of substances are listed next.
# Protocol Text: amyloid nucleation score (Sup35N fusion, yeast selection) (log enrichment); library NNK2; higher = more nucleation; inactive = no reads after selection;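 further: zero at mode of non-aggregating sequences after 7 days selection at 30°C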
Measure: amyloid nucleation score

MPNNVPEEN = 0.216
MVVRDL = -0.536
PQSWIVHRTIVHGSLGSCFP = -0.4
FGKNLTRMSDGGTVVPLRRN = 0.255
GSLDWRMELWWKFFLHHQPL = 0.759
VSRGNAGWS = 3.6
PRSNCLHCFLLPLSNIVLCA = 4.66
EMSPSLMELFHACVVLVRFG = -0.051
RIKMGSSGNLCFIWSMHMYD = 6.5
DQSFLF = -0.039
FDSPYPMPMSHSVNSSLIIW = -0.155
RSHTTGLPS = 0.718
VWSSLGRECPSSCIVFLSVE = -0.464
YNFRSSLRNGYKEVRGVQYG = 5.22
NIRFTSLFRLCYFSCDSVSN = 5.3
YFRYMLW = 4.16
ISAWAWHQVTWRIPGALVVG = 0.294
WLVGHKLKYA = 0.113
YWKGNTRIGQVLFYTLSCKT = 0.389
VLASWSDFKSRGRGNSSVSG = 1.24
YLSTFVGTVHDSHTCRFCWN = 3.79
LCMQSVSGALSPSARRRLCV = -0.235
GRLGSAPQKR = 0.686
MIHQIELNDIGWVLTTFCNE = -0.536
PPLYSFVQYMRGFANNVISG = 0.227
MKFKYTNHVYRIDCRSAT = 0.551
WSEHQGQPNRERWWSAAGEG = 0.984
SWHPRKRWNVCERF = 0.273
RLRFPSPFRTVNWSFIRFAR = 5.03
RVMMLEGQASNMAYEEL = 0.274
RSFGSYCAGEGTRSPRDSRG = 0.172
NELNLDKPSDLPLS = 0.844

---

# Protocol Text: amyloid nucleation score (Sup35N fusion, yeast selection) (log enrichment); library NNK3; higher = more nucleation; inactive = no reads after selection
Measure: amyloid nucleation score

SVALYVPLQSYSQQFLEVAT = inactive
SESQYRRWYTLAFVYMRHLN = inactive
GGNSWITSMLAYWLTSAHNA = inactive
CTPFTLECW = -0.193
KPQYENVMCY = inactive
VLADCWRSGIHWIGHTYLIN = inactive
EISLPLFFATLGYFFWIAMR = inactive
SECRTRLWLRESYNFSPDVK = inactive
FLTRIHFLCTCVRRNG = 1.37
IRMQNLRFGSLKLAGFIMCD = inactive
TKECGKKFNYWVRIDLSRLW = inactive
WVDFTTWLKFVFRSSIHYLL = 0.012
PRSANSARCVTISSNMEHSR = inactive
LYLIFFCLWSSQLDAQLFVL = -0.217
IKAYSRRSLSSSG = inactive
SNAHMCVRRTAWKNI = inactive
SRDFVKYISEERS = inactive
ASYEDFWDNLA = -0.239
TSDIDIY = -0.397
IRDYVFRLYYRLNCMIRKRG = inactive
MEFYVYTMDKRCSRMFSWHS = inactive
ASYLCVFCDRAFQCGPYRYI = 2.22
FNWLGLGLMLGIDRDRCDNV = inactive
